Give pIC50 for every item shown.
Assay: Inhibition of baker's yeast alpha-glucosidase using p-nitrophenyl-alpha-D-glucopyranoside as substrate preincubated for 0.5 hrs followed by substrate addition measured for 0.5 hrs
Set-up: species or system Saccharomyces cerevisiae
Answers are plain numbers, as −log10 of the molar value.

{"columns": ["Molecule", "Reported measurement"],
 "data": [
  ["C[C@H]1O[C@H](O[C@H]2[C@H](O)[C@@H](O)[C@@H](O[C@H]3[C@H](O)[C@@H](O)C(O)O[C@@H]3CO)O[C@@H]2CO)[C@H](O)[C@@H](O)[C@@H]1N[C@H]1C=C(CO)[C@@H](O)[C@H](O)[C@H]1O (stereo partly drawn)", 3.24],
  ["C=C[C@@]1(C)CC[C@]2(C)c3cc(O[C@@]45OC(=O)C(C)=C4[C@H]4O[C@]46CC[C@@H]4C(C)(C)CCC[C@@]4(C)[C@@H]6[C@H]5O)c(O)c(C)c3CC[C@H]2C1", 5.10]
]}

For the molecule C=C[C@@]1(C)CC[C@]2(C)c3cc4c(c(C)c3CC[C@H]2C1)O[C@@H]1C2=C(C)C(=O)O[C@@]2(O4)[C@H](O)[C@H]2[C@]3(C)CCCC(C)(C)[C@H]3CC[C@@]12O , give its measured pIC50 value.
4.30

====

Assay: Inhibition of acetyltransferase activity of Mycobacterium tuberculosis H37Rv GlmU expressed in Escherichia coli BL21(DE3) using acetylcoA as substrate after 30 mins
Experimental endpoint: IC50 (µM)
One number for each entry, in µM.

For the molecule C=C[C@@]1(C)CC[C@]2(C)c3cc4c(c(C)c3CC[C@H]2C1)O[C@@H]1C2=C(C)C(=O)O[C@@]2(O4)[C@H](O)[C@H]2[C@]3(C)CCCC(C)(C)[C@H]3CC[C@@]12O , give its measured IC50 value.
41.9
